Data credit: patent US12410171B2

Provide the recorded percent degradation of TPM3-TRKA protein at 0.01 µM for the entries that follow.
# TARGET DESC: TPM3-TRKA fusion protein (Homo sapiens)
# Construct: The resulted chimeric proteins always retain the kinase domain of TRK proteins; TPM3 (fusion partner, N-terminal part of tropomyosin alpha-3, P06753); endogenous in cells; host or cells: KM12 colon cancer cells; the other entry of the earlier key: TPM3 (P06753, Tropomyosin alpha-3 chain)
# Sequence (P04629 with tags, fused parts or gaps): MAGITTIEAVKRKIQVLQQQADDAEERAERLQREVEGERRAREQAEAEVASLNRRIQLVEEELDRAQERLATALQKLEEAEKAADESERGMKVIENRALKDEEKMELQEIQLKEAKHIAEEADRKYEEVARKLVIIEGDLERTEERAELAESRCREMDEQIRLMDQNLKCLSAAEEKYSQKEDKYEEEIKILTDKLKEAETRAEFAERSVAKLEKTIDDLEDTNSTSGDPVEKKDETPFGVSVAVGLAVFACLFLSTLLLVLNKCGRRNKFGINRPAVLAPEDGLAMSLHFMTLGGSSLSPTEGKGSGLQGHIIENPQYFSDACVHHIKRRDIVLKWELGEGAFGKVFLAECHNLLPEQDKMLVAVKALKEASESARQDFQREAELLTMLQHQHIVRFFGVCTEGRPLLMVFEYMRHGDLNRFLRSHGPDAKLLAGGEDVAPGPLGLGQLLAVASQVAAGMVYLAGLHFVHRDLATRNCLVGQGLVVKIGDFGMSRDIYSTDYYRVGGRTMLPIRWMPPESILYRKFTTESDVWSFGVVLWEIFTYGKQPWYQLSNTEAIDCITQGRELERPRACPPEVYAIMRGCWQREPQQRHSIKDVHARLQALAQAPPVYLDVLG
# METHOD: TPM3-TRKA fusion protein levels in KM12 cells (Western blot)
# Format: cell-based
# ASSAY CONTEXT: 16 h; TPM3-TRKA degradation in KM12 cells at 10 nM; read-out: Degradation (at 10 nM)

COc1ccc(COc2ccc(Cn3c(N)nc4cc(-c5cnn(CC(=O)NCCCCCCCC(=O)N[C@H](C(=O)N6C[C@H](O)C[C@H]6C(=O)NCc6ccc(-c7scnc7C)cc6)C(C)(C)C)c5)cnc43)cc2OC)cc1 [CPD-510] : < 50%
COc1ccc(COc2ccc(Cn3c(N)nc4cc(-c5cnn(CC(=O)NCCCCNc6cccc7c6C(=O)N(C6CCC(=O)NC6=O)C7=O)c5)cnc43)cc2OC)cc1 (stereo not drawn) [CPD-499] : > 80%

Name the reported percent degradation of TPM3-TRKA protein at 0.01 µM value associated with the compound NC(=O)C1CCN(c2cc(CN3CCN(C(=O)CCCCCCCNc4cccc5c4C(=O)N(C4CCC(=O)NC4=O)C5=O)CC3)ccc2NC(=O)c2coc(N3CCOCC3)n2)CC1 (stereo not drawn) [CPD-484]
> 80%
